experiment: Therapeutic index was expressed as ratio of LD50 for KB cell line to IC50 against Plasmodium falciparum; assay type: cell-based; settings: human, KB cells; read-out: TI
// reported selectivity ratio per item
measured-endpoint: selectivity ratio

- compound: "CCCCCCNC(P(=O)(O)O)P(=O)(O)O"
  measured-endpoint: "selectivity ratio"
  result: "> 17.1"
- compound: "CCCCCC(C)NC(P(=O)(O)O)P(=O)(O)O (centres undefined)"
  measured-endpoint: "selectivity ratio"
  result: "> 9.64"
- compound: "O=P(O)(O)C(O)(CSc1ccncc1)P(=O)(O)O"
  measured-endpoint: "selectivity ratio"
  result: "> 4.72"
- compound: "CCCCC(O)(P(=O)(O)O)P(=O)(O)O"
  measured-endpoint: "selectivity ratio"
  result: "> 18.4"

---

assay: in vitro; details: human, KB cells (nasopharyngeal carcinoma)
Description: Toxicity evaluated against human nasopharyngeal carcinoma KB cell line

- compound: "O=P(O)(O)C(Nc1ccc(-c2ccccc2)cc1)P(=O)(O)O"
  value-qualifier: "="
  CC50, µM: 495
- compound: "O=P(O)(O)C(NC1CC1)P(=O)(O)O"
  value-qualifier: "="
  CC50, µM: 246
- compound: "CCCCCCNC(P(=O)(O)O)P(=O)(O)O"
  value-qualifier: ">"
  CC50, µM: 966
- compound: "CCCCCCc1ccc(NC(P(=O)(O)O)P(=O)(O)O)cc1"
  value-qualifier: "="
  CC50, µM: 373
- compound: "O=P(O)(O)C(O)(C1CCCCC1)P(=O)(O)O"
  value-qualifier: "="
  CC50, µM: 1090
- compound: "CCCNC(P(=O)(O)O)P(=O)(O)O"
  value-qualifier: "="
  CC50, µM: 499
- compound: "CCCCCCCC(O)(P(=O)(O)O)P(=O)(O)O"
  value-qualifier: "="
  CC50, µM: 308
- compound: "O=P(O)(O)C(Nc1ccc(Cl)nc1)P(=O)(O)O"
  value-qualifier: ">"
  CC50, µM: 992
- compound: "CC(C)(C)c1cc(NC(P(=O)(O)O)P(=O)(O)O)cc(C(C)(C)C)c1"
  value-qualifier: "="
  CC50, µM: 634
- compound: "O=P(O)(O)C(NCCc1ccc(O)cc1)P(=O)(O)O"
  value-qualifier: "="
  CC50, µM: 99.8
- compound: "CC(C)CCNC(P(=O)(O)O)P(=O)(O)O"
  value-qualifier: "="
  CC50, µM: 480
- compound: "CC(C)CNC(P(=O)(O)O)P(=O)(O)O"
  value-qualifier: "="
  CC50, µM: 50.5
- compound: "CCCCCNC(P(=O)(O)O)P(=O)(O)O"
  value-qualifier: ">"
  CC50, µM: 1150
- compound: "CCCCCCC(O)(P(=O)(O)O)P(=O)(O)O"
  value-qualifier: "="
  CC50, µM: 109
- compound: "O=P(O)(O)C(NC1CCC1)P(=O)(O)O"
  value-qualifier: "="
  CC50, µM: 260
- compound: "O=P(O)(O)C(Nc1nccc2ccccc12)P(=O)(O)O"
  value-qualifier: "="
  CC50, µM: 673
- compound: "O=P(O)(O)C(N1CCC(O)CC1)P(=O)(O)O"
  value-qualifier: ">"
  CC50, µM: 1010
- compound: "O=P(O)(O)C(N1CCOCC1)P(=O)(O)O"
  value-qualifier: "="
  CC50, µM: 964
- compound: "O=P(O)(O)C(CNc1ccccn1)P(=O)(O)O"
  value-qualifier: "="
  CC50, µM: 144
- compound: "CC(N)CC(O)(P(=O)(O)O)P(=O)(O)O (centres undefined)"
  value-qualifier: ">"
  CC50, µM: 977
- compound: "CN(C)CCC(O)(P(=O)(O)O)P(=O)(O)O"
  value-qualifier: ">"
  CC50, µM: 1050
- compound: "O=P(O)(O)C(Nc1cccnc1Cl)P(=O)(O)O"
  value-qualifier: ">"
  CC50, µM: 963
- compound: "Cc1cc(C)nc(NC(P(=O)(O)O)P(=O)(O)O)c1"
  value-qualifier: "="
  CC50, µM: 633
- compound: "CCCC(O)(P(=O)(O)O)P(=O)(O)O"
  value-qualifier: ">"
  CC50, µM: 967
- compound: "CCCCNC(P(=O)(O)O)P(=O)(O)O"
  value-qualifier: "="
  CC50, µM: 212
- compound: "O=P(O)(O)C(Nc1ccc(I)cn1)P(=O)(O)O"
  value-qualifier: "="
  CC50, µM: 466
- compound: "O=P(O)(O)C(O)(C1CC1)P(=O)(O)O"
  value-qualifier: ">"
  CC50, µM: 1240
- compound: "O=P(O)(O)CC(c1ccncc1)P(=O)(O)O (centres undefined)"
  value-qualifier: ">"
  CC50, µM: 1120
- compound: "O=P(O)(O)C(Nc1cc(Br)cc(Br)n1)P(=O)(O)O"
  value-qualifier: "="
  CC50, µM: 520
- compound: "O=P(O)(O)C(NCCCc1ccccc1)P(=O)(O)O"
  value-qualifier: ">"
  CC50, µM: 970
- compound: "O=P(O)(O)CC(c1cccnc1)P(=O)(O)O (centres undefined)"
  value-qualifier: "="
  CC50, µM: 1020
- compound: "O=P(O)(O)C(NC1CCCCCCC1)P(=O)(O)O"
  value-qualifier: "="
  CC50, µM: 354
- compound: "O=P(O)(O)C(N1CCc2ccccc2C1)P(=O)(O)O"
  value-qualifier: ">"
  CC50, µM: 922
- compound: "Cc1cccc(NC(P(=O)(O)O)P(=O)(O)O)n1"
  value-qualifier: "="
  CC50, µM: 18.6
- compound: "CCCCCCCCCCCCCCCC(O)(P(=O)(O)O)P(=O)(O)O"
  value-qualifier: ">"
  CC50, µM: 729
- compound: "O=P(O)(O)C(CNc1ccncc1)P(=O)(O)O"
  value-qualifier: "="
  CC50, µM: 386
- compound: "CCCCCC(O)(P(=O)(O)O)P(=O)(O)O"
  value-qualifier: ">"
  CC50, µM: 993
- compound: "CCCCN(CC)C(P(=O)(O)O)P(=O)(O)O"
  value-qualifier: ">"
  CC50, µM: 1060
- compound: "Cc1csc(NC(P(=O)(O)O)P(=O)(O)O)n1"
  value-qualifier: "="
  CC50, µM: 150
